Origin of measurements: a protein production outcome set (Wang et al. 2014)

assay: label from the status in PepcDB records
parameter: protein production

1. MSFLKPKTHIEKGDVVILYLSVSSMHAIEAVPEIVNKKGETIPHIFQTNYGSLKVENIIGVEYGSKVELSKGWAHVLQPTPELWTQTLPHRTQIIYTPDISMIIHQLEVRPGAVVVESGTGSGSLSHYFLRALKPTGHLHTFDFHEARADQARDEFRRHGIADFVTVYHRDVCNLGFGAELDGKADAVFLDLPAPDLAVPHAFKALKLSGGRFCSFSPCIEQSQRCIQELTKLGFNEIVSLEVLQQENVVKTRTLPVIDLEFLKLPKTDETTAATNALESKAPKEVKKYLTSSNPQTLPGHTGFLTFATLPPNIPKA ... failed
2. MVGKMNEWELALKNKDCKKLLELFDDYFDEVSEDKLEEELKRVGEVAVECEDFDLIHEIAHIYEHLGEAEKGIDLYKRIVEKRKGRNTEDYAEALYYLADAYDHFGMPEEALKTYEELLELEKRIGNKREIGLTLANLAIIKDELGNVEEAIKLMEEARKIFEELKDENNYLISLIDLAHFKYELGEYEEAMKLIREVLRNPVDKEIEVNARLVESEIYAGERKYKEAAISLRNALQRSEDDEELFSLVFDSLTEFLEGLFNESRYRELVEVSPLFAELFEDDTKYFFNAIKGLAEWRLGNEKAREEFEENYKNIQNEELKALLDEWRRPKLSLGLNL ... failed
3. MSVKRVLRNTIRKEKEENRVTEPLTETPELSAKYAWFFDLDGTLAEIKPHPDQVVVPDTILQGLQLLATASDGALALISGRSMVELDALAKPYRFPLAGVHGAERRDINGKTHIVHLPDAIARDISVQLHTVIAQYPGAELEAKGMAFALHYRQAPQHEDALMTLAQRITQIWPQMALQQGKCVVEIKPKGTSKGEAIAAFMQEAPFIGRTPVFLGDDLTDESGFAVVNRLGGMSVKIGTGATQASWRLAGVPDVWSWLEMITTALQQKRENNRSDDYESFSRSI ... failed
4. MSNVCIVYSSTHHGNTEKVLNKIKEKFPETVLIKAGDFNPDDFNRYEAIGFASGIFYFKFAKPVDKLFEQALVGSVQKLFFIYTAGAVNAGFEKTLRKKTEQSGKICMGIFGCKGFDTFGPLKLIGGLNKNSPNEKDFKNAIDFFEKNIINALEHHHHHH ... not failed
5. MFSPEQIAGKDVRLLRIKKEGSLDLALEGGVDSPVGKVVVSAVYEGGAAERHGGVVKGDEIMAINGKIVTDYTLAEAEAALQKAWNQGGDWIDLVVAVCPPKEYDDELTFF ... not failed
6. MRLPRQIRLPHLRDIGALLTDSAREWSRHRASSKGAALSLYMVFSLAPMLILVIAVAGAFFGEEAVRSELFSQVRDLTGERGAEVIQTVLASAHESGSGWLAALLSICVLVFSATTAFAELKASLDELWDVKEDKSGLQGLVRSRMLSFGLVLVLALFLLLSLTLNAALGAAKGYYGDLWSTSAFAMAADWLSNLFSFAVVTALFAVVYKLLPSKRIPWLDVIPGAIVTAALFLAGKWGIGLYLERGTAVSAYGAAGSLIALLLWIYYSAQIFFFGAVFTRQFAERFGNLRRAAPA ... not failed
7. MQSAYSFLPQVIAHRGSSGQAPENTLASLHLAGQQGIKWVEIDVMLSGDGIPVIFHDDYLSRTTDGDGLIYKTPLAELKQLDAGSWKGQEYQQETIPTLLEAIEVISQYGMGLNLELKPCEGLEEETIAASVEVLKQHWPQDLPLLFSSFNYFALVSAKALWPEIARGYNVSAIPSAWQERLEHLDCAGLHIHQSFFDVQQVSDIKAAGYKVLAFTINDESLALKLYNQGLDAVFSDYPQKIQSAIDSHIN ... not failed
8. MAVGFFAQVIDGALGMAYGITATTFLLSAGATPAAASASVHIAEVFTTGFSGISHVKLGNVNKSLFLRLLLPGMIGAVLGAVLITRFDGHQLKPFISAYLLLMGLYILSKAYRHVIKRRAPRHVAKLALFGGFVDAAGGGWGPVVTSSLIGSGSDPRTTIGSVNFAEFFLTIASATSFILLAGQPDTWKMVAGLVFGGLFAAPFAALLCKKLSPRTLLVIVGTLITLISAYNIYIGLR ... failed

Reported protein production, sequence `MSLRIVVTVKYVPDATGDRHFAEDLTVDRDDVDGLLSELDEYAVEQALQIADDADDADDAEITVLTVGPEDAKDALRKALSMGADKAIHVEDDDLHGTDVIGTSLVLAKAIEKAGYDLVISGMASTDGTAGVVPALLAERLGVPQVTLLSEVSVEDGVVKGRRDGDSASEQLEASLPAVVSVTDQSGEARYPSFKGIMAAKKKPVESWDLSDLDLEAEEVGLEGAWTKVDSATERPARTAGTIVKDEGEGGKQLAEFLAGQKFI` : ____
failed

Given the sequence `MDKDLKLRPRIKRLLSPAVMQAELLGGAAWLWVLMLGPSVKINLFTCFLTLSLACICWIQHTTTVFCIWRLLGIAYMLLLATGFFYLMDGDPEINIFALPLTITLAISSALLFVKFLDYLLSAVFVWLLTWLCWQEGVYGEIGIYVWIFCVASVCIGSVLNISYIKTLRAVLSLESKFRELAETDYLTSIPNRRAFMESFDSLIKGGESGYLIMLDIDNFKLINDRHGHEIGDRILCSMAACLRATSGSHCAGRIGGEEFGVLITGGDELTACDYILRLLETVRANFDPPYNYSCSVGMVRFSAASTMSEALSMADKSMYIAKRNGKDCAYFEGQEIVSFLFDDSKLKEKYPTETLSENTYQTDTQ` , what is its reported protein production?
failed

Which measured protein production value corresponds to `MSGVASGKTAIKSTAKVLSFVVQKHWATRLHYDFRLELEGTMKSWAVPKGPSFDPNDKRMAVHVEDHPISYNSFEGEIPSGQYGAGKVIIWDKGTWIPLEDPHKGYRDGKLKFELRGLKLKGHWALVRMRKEENKKQEPWLLIKEKDEYVRSSREYSVVDEMPDSVAELEHHHHHH` ?
failed

----------
experiment: label from the status in PepcDB records
parameter: protein production

Worked cases, answers included:
1. SAFQAAAARLGAPVSHDFCAISLSDLMTPWEVIEKRIEAAASADFVTAVYNPRSRDRYWQIHRFRELFLRHRSPSTPVGIVRNVTRKDESVVLTTLGEFDPDSLDMFTMMLVGNSTTF ... not failed
2. MSVADSYFDELFRNNDDPWAFKQRWYERRKRALTLAALPRERYRAIFEPGCANGELSADLAERCDMLVCCDTSTQAVELARQRLADVPHARVVQARLPHQWPAGQFDLIVFSELGYYLDAADLHRLIDCALAALSPDGQLLACHWRPDIEGCPLNAQAVHAILAERLSMHRLFSHHEQDFLLDLWSRDGLEHHHHHH ... failed
3. MVIFNYILVCIIFGTTFLTIKIGIEAGAPPLFSAGIRFFLAGIILMIIFKLKRKEIMPHIFSKRIMYAGFCLTFMTFASLYWSEQYISSGLAAVLSATGPMMILLIQAKRNREKLQKEQLVALVIALIGVIFVSLPGMHQQVSFIWSIACIVLVIGELFYGIGSIRSKEILSDLSNVSPFLINGIQMFYGGILLLIASIIVEQPNVTVLTSWSVQWPILYLIFIGSIGGHGLYYWLLSKTNPVFPSTWLYVSPLIAIIVGYIILGEPLNPTMGMGACLILIGVFLANRSTLRTYFKKGRLLEKEM ... failed
4. MCIAIPGKMTAIVDENTATIDMGGICRDVNMALMGGAEESMIGKHFLVHVGYAISEISEEESEETMRLLKIMAGLEEIDSFENESQ ... failed

For the sequence `MQHESPIIRRKSTRIYVGDVPIGDGAPIAVQSMTNTRTTDVEATVAQIRALEKVGADIVRVSVPTMEAAEAFKLIKQQVSVPLVADIHFDYRIALKVAEYGVDCLRINPGNIGNEERIRSVVDCARDKNIPIRIGVNGGSLEKDLQMKYGEPTPEALVESAMRHVDHLDRLNFDQFKVSVKASDVFLAVDSYRLLAKKIDQPLHLGITEAGGARAGAVKSAVGLGMLLSEGIGDTLRISLAADPVEEIKVGFDILKSLRIRSRGINFIACPSCSRQEFDVIGTVNALEQRLEDIITPMDVSIIGCVVNGPGEAEVSHLGLAGSNKKSAFYEDGKRQKERFDNNDLVNQLEAKIRAKASMMDSENRIEIKVQD` , what protein production is on record?
failed

Look at this sequence and give its reported protein production. `MYRMDKYTIGLIRVITLEDKEILNLHGRIIESAFPELKVVSRCIEDQPKGIYNEETEREAEPKIIRLAKEFEREGVDAIIISCAADPAVEKVRKLLSIPVIGAGSSVSALALAYGRRVGVLNLTEETPKVIRSILGNNLIAEDHPSGVSNTLDLLTDWGRREVINAAKRLKEKGVEVIALGCTGMSTIGIAPVLEEEVGIPVIDPVIASGAVALHALKRREVKRFEGR`
not failed

Can you share its protein production? I mean this sequence: `MVQAWYMDESTADPRKPHRAQPDRPVSLEQLRTLGVLYWKLDADKYENDPELEKIRKMRNYSWMDIITICKDTLPNYEEKIKMFFEEHLHLDEEIRYILEGSGYFDVRDKEDKWIRISMEKGDMITLPAGIYHRFTLDEKNYVKAMRLFVGEPVWTPYNRPADHFDARVQYMSFLEGTA`
not failed
